system: Wnt5a (protein binding on small-molecule microarray); assay: Wnt5a binders on small-molecule microarray, primary screen, biophysical, 635/667 nm fluorescence (AID 1142); details: 635 nm fluorescence, higher = more signal;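 note: fluorescence read at 667 nm with signal to noise per printed feature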
REPORTED_PROPERTY: composite z-score
One number for each entry.

Check out these entries, answers already filled in.
>>> df
                                   compound     val
0  CCOC(=O)C1=CCC(c2cc3ccccc3[nH]2)N(S(=O)(=O)c2ccccc2[N+](=O)[O-])C1 (configuration not stated)   0.379
1  CCN(CC)c1ccc(N2CC=CC34O[C@@H]5C=CCOC(=O)[C@@H]5[C@H]3C(=O)N(CCCO)[C@@H]4C2=O)cc1 (some centres not stated)  -0.121
2  CC(c1ccccc1)C(O)C1C=CC2C(=O)N(c3ccccc3)C(=O)C2N1Nc1ccc(C#N)cc1 (configuration not stated)   0.644
3  NC(=O)NCC#Cc1ccc2c(c1)[C@]1(C(=O)N2)[C@H](C(=O)N2CCCCCCC2)[C@H]2C(=O)O[C@H](c3ccccc3)[C@H](c3ccccc3)N2[C@@H]1c1ccc(O)cc1   0.399
4  CC(=O)NCCCC[C@@H]1NC(=O)[C@@H]2C[C@H](C(=O)NCCCCCC[N+](C)(C)C)[C@H](c3ccc(O)cc3)N2C1=O  0.0463

Hello, I would appreciate it if you could give composite z-score for each entry below.
1. CCCCC(=C=CC[C@@H](O)c1ccc(OCCO)cc1)C[C@@H](O)c1ccccn1
2. COc1ccc([Si](C)(C)[C@H]2[C@H](CCn3cc([C@H](O)c4ccccc4)nn3)O[C@@]3(C(=O)N(C)c4c(Br)cc(C)cc43)[C@@H]2C)cc1

Result block:
1: 0.158; 2: -0.0472
